target: cloned recombinant human HDAC-1 (Homo sapiens); construct: made in house; host or cells: Baculovirus insect cell expression system; test: Human HDAC-1 enzyme inhibition, Assay 1 ([3H]-acetylated histone substrate, scintillation counting); assay type: biochemical; details: HDAC-1 IC50, Table 5d
Sequence (Q13547 whole entry): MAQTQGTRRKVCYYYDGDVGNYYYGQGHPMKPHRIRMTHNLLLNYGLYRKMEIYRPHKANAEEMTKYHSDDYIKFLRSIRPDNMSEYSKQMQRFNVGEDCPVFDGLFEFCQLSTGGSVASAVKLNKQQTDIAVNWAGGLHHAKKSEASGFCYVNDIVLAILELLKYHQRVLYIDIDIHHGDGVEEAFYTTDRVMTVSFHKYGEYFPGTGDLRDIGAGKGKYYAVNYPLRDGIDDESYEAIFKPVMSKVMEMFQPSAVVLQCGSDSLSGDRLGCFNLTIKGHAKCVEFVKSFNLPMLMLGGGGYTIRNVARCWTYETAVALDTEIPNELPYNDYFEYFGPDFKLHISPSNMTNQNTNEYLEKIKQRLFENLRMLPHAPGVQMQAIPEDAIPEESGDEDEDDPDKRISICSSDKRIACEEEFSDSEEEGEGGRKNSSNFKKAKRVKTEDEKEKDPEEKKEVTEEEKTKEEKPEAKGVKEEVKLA
endpointLabel: IC50 (µM)
Write the answer as a number in µM, unit excluded.

Give the value of IC50 reported for the following: Nc1ccccc1NC(=O)/C=C/c1ccc(CNc2ccc(Cc3ccncc3)cc2)cc1
3

---

I'd be grateful if you could share measured pIC50 for these entries.
Test system: HCT116 cells
Experiment: MTT assay
Format: cell-based
Settings: Homo sapiens, HCT-116, 72 h, Table 5b; HCT116 cells, 72 hours
Method: HCT116 cells (2000/well) were plated into 96-well tissue culture plates one day before compound treatment. Compounds at various concentrations were added to the cells. The cells were incubated for 72 hours at 37° C. in 5% CO2 incubator. […]
Formally, pIC50 is defined as -log10 of the concentration c, with c in mol/L.

Identify the reported pIC50 for the following entry. Nc1ccccc1NC(=O)c1ccc(CNc2nc(NCCc3cccnc3)nc(NC3CC3)n2)cc1 [Cpd 481]
6.15

Give pIC50 for Nc1ccccc1NC(=O)c1ccc(CNc2nc(NCC3CC3)nc(NC3Cc4ccccc4C3)n2)cc1 [Cpd 472]
6.00

Annotate the compound Nc1nc(NCCCc2ccccc2)nc(NCc2ccc(C(=O)Nc3ccccc3N)cc2)n1 [Cpd 470] with its measured pIC50.
6.15

Report pIC50 for Nc1ccccc1NC(=O)c1ccc(CNc2nc(NCCc3ccccn3)nc(NC3CC3)n2)cc1 [Cpd 480]
6.30

Fill in pIC50 for record Nc1ccccc1NC(=O)c1ccc(CNc2nc(NCCc3cccc(Cl)c3)nc(NC3CC3)n2)cc1 [Cpd 477]
6.15

Determine from records and report pIC50 for CN(Cc1ccc(C(=O)Nc2ccccc2N)cc1)c1nc(N)nc(NC2Cc3ccccc3C2)n1 [Cpd 216]
6.40

Read the entry Nc1ccccc1NC(=O)c1ccc(CNc2nc(NC3CC3)nc(OCCc3ccccc3)n2)cc1 [Cpd 482] and write its reported pIC50.
6.15

Answer with the recorded pIC50 of Cc1nc(NCc2ccc(C(=O)Nc3ccccc3N)cc2)nc(NC2Cc3ccccc3C2)n1 [Cpd 218] only.
6.30

Origin of measurements: patent US7868204B2
